Each recorded value in this set is attributed to ChEMBL document CHEMBL3992498.

Target: Trace amine-associated receptor 1 (Mus musculus) (UniProt Q923Y8)
Experiment: Agonist activity at mouse TAAR1 expressed in HEK293 cells assessed as cAMP accumulation at 10 uM after 20 mins by BRET assay relative to beta-PEA
Format: functional, cell-based
The reader will find reported Emax values listed item by item below.

Some solved cases for reference:
>>> print(df.to_string())
                                   compound  measuredproperty  reading
0               NC(N)=N/C(N)=N/Cc1cccc(F)c1              Emax    > 85%
1                NC(N)=N/C(N)=N/Cc1ccccc1Cl              Emax    > 85%
2                  Cc1ccc(NC(=N)N=C(N)N)cc1              Emax    > 85%
3  N=C(N)NC(=N)Nc1ccc(Cl)cc1 [4-CHLOROPHENYLBIGUANIDE]              Emax    > 85%
4            CC(C)NC(=N)NC(=N)Nc1ccc(Cl)cc1              Emax    > 85%
5              NC(N)=N/C(N)=N/Cc1cccc(Cl)c1              Emax    > 85%
6          NC(N)=N/C(N)=N/Cc1ccc(Cl)c(Cl)c1              Emax    > 85%
7                    N=C(N)NC(=N)NCc1ccccc1              Emax    > 85%
8                   N=C(N)NC(=N)Nc1ccccc1Cl              Emax    > 85%
9              NC(N)=N/C(N)=N/Cc1ccc(Cl)cc1              Emax    > 85%

# ---- query compound ----
Entry `NC(N)=N/C(N)=N/Cc1cccc(Br)c1` , Trace amine-associated receptor 1 (Mus musculus) (UniProt Q923Y8) data, Emax value: > 85%

* * *

Biological target: Trace amine-associated receptor 1 (Mus musculus)
Sequence (Q923Y8 whole entry): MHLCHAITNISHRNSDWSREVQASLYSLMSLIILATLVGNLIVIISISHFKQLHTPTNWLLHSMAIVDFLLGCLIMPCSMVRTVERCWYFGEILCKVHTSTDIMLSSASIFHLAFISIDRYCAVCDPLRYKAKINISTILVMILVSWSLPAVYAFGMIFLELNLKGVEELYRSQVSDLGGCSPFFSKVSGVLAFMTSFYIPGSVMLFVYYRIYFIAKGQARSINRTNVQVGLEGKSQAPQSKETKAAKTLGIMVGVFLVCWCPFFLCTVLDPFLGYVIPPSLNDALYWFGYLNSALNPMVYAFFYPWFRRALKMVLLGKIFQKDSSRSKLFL
Assay: Agonist activity at mouse TAAR1 expressed in HEK293 cells assessed as cAMP accumulation after 20 mins by BRET assay
measuredProperty: EC50 (nM)
Supply the numeric figure in nM, leaving out any unit text.

A selection of reference data follows.
In [3]: df
Out[3]:
                                   compound  reading
0  N=C(N)NC(=N)Nc1ccc(Cl)cc1 [4-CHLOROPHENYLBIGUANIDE]     2100
1          NC(N)=N/C(N)=N/Cc1ccc(Cl)c(Cl)c1       36
2              NC(N)=N/C(N)=N/Cc1ccc(Cl)cc1      780
3                   N=C(N)NC(=N)Nc1ccccc1Cl      410
4  [H]/N=C(\N/C(=N/[H])Nc1ccc(Cl)cc1)NC(C)C     5400

Entry under test: `NC(N)=N/C(N)=N/Cc1ccccc1Cl` . Its EC50 was 410

The compound listed as `Cc1ccc(NC(=N)N=C(N)N)cc1` shows EC50 equal to 1700

The compound `N=C(N)NC(=N)NCc1ccccc1` showed EC50 equal to 780

Notebook: `NC(N)=N/C(N)=N/Cc1cccc(Cl)c1` , EC50 read as 97

EC50 in this record for `NC(N)=N/C(N)=N/Cc1cccc(F)c1` : 540

// EC50 lookup, compound = `NC(N)=N/C(N)=N/Cc1cccc(Br)c1` , result: 1800
